// data source = patent US20220233661A1

- Test system: cancer patients
- Test: Test Example 4: correlation between vaccination with individual peptides (or peptide sets) and OS, Cox proportional hazards regression
- Assay type: in vivo, human
- Reported conditions: Table 18; all 2,588 cases; Cox proportional hazards regression, vaccinated vs non-vaccinated, OS
Catalogue of HR values
Assay endpoint: HR

INSERT INTO results (residue_sequence, assay_endpoint, recorded_number) VALUES
  ('LYAWEPSFL (listed as Homo sapiens) [MRP3-503]', 'HR', 0.9),
  ('RYLTQETNKV (listed as Homo sapiens) [PTHrP-102]', 'HR', 0.9),
  ('ALVEFEDVL (listed as Homo sapiens) [HNRPL-140]', 'HR', 0.8),
  ('DLLSHAFFA (listed as Homo sapiens) [MAP-432]', 'HR', 1.0),
  ('HYTNASDGL (listed as Homo sapiens) [Lck-208]', 'HR', 0.9),
  ('KLKHYGPGWV (listed as Homo sapiens) [CypB-129]', 'HR', 0.9),
  ('TYSVSFDSL (listed as Homo sapiens) [PSMA-624]', 'HR', 1.0),
  ('DYVREHKDNI (listed as Homo sapiens) [EGFR-800]', 'HR', 0.8),
  ('VIQNLERGYR (listed as Homo sapiens) [Lck-449]', 'HR', 0.9),
  ('NYSVRYRPGL (listed as Homo sapiens) [MRP3-1293]', 'HR', 1.1),
  ('TFDYLRSVL (listed as Homo sapiens) [Lck-486]', 'HR', 0.9),
  ('ILEQSGEWWK (listed as Homo sapiens) [Lck-90]', 'HR', 1.0),
  ('VYDYNCHVDL (listed as Homo sapiens) [SART3-109]', 'HR', 1.0),
  ('KLVERLGAA (listed as Homo sapiens) [Lck-246]', 'HR', 1.0),
  ('WLEYYNLER (listed as Homo sapiens) [SART3-511]', 'HR', 1.0),
  ('KYVGIEREM (listed as Homo sapiens) [EZH2-735]', 'HR', 0.9);

====

- Tested on: anti-peptide IgG in plasma
- Test: Test Example 4: peptide-specific IgG titer pre and post vaccination, bead-based multiplexed Luminex assay
- Format: in vivo, human
- Reported conditions: number of vaccinated patients with positive IgG response
Assay endpoint: Post vaccination IgG: (positive) patients

INSERT INTO assay_data (residue_sequence, subject_of_test, result) VALUES
  ('WLEYYNLER (listed as Homo sapiens) [SART3-511]', 'anti-peptide IgG in plasma', '439(145)'),
  ('LYAWEPSFL (listed as Homo sapiens) [MRP3-503]', 'anti-peptide IgG in plasma', '133(85)'),
  ('VYDYNCHVDL (listed as Homo sapiens) [SART3-109]', 'anti-peptide IgG in plasma', '474(223)'),
  ('QIRPIFSNR (listed as Homo sapiens) [SART3-734]', 'anti-peptide IgG in plasma', '625(225)'),
  ('ALVEFEDVL (listed as Homo sapiens) [HNRPL-140]', 'anti-peptide IgG in plasma', '200(111)'),
  ('AYDFLYNYL (listed as Homo sapiens) [SART2-161]', 'anti-peptide IgG in plasma', '195(61)'),
  ('KLKHYGPGWV (listed as Homo sapiens) [CypB-129]', 'anti-peptide IgG in plasma', '483(222)'),
  ('LLQAEAPRL (listed as Homo sapiens) [SART3-302]', 'anti-peptide IgG in plasma', '408(271)'),
  ('DYVREHKDNI (listed as Homo sapiens) [EGFR-800]', 'anti-peptide IgG in plasma', '390(156)'),
  ('NVLHFFNAPL (listed as Homo sapiens) [HNRPL-501]', 'anti-peptide IgG in plasma', '355(223)'),
  ('VIQNLERGYR (listed as Homo sapiens) [Lck-449]', 'anti-peptide IgG in plasma', '127(67)'),
  ('NYSVRYRPGL (listed as Homo sapiens) [MRP3-1293]', 'anti-peptide IgG in plasma', '324(157)'),
  ('TFDYLRSVL (listed as Homo sapiens) [Lck-486]', 'anti-peptide IgG in plasma', '879(573)'),
  ('ASLDSDPWV (listed as Homo sapiens) [WHSC2-103]', 'anti-peptide IgG in plasma', '729(222)'),
  ('GIHKQKEKSR (listed as Homo sapiens) [PAP-248]', 'anti-peptide IgG in plasma', '147(62)'),
  ('DYLRSVLEDF (listed as Homo sapiens) [Lck-488]', 'anti-peptide IgG in plasma', '1103(635)'),
  ('HYTNASDGL (listed as Homo sapiens) [Lck-208]', 'anti-peptide IgG in plasma', '134(64)');

====

# Lookup of reported Pre-vaccination IgG Negative patients keyed by entry
- Tested on: anti-peptide IgG in plasma
- Test: Test Example 4: peptide-specific IgG titer pre and post vaccination, bead-based multiplexed Luminex assay
- Type: in vivo, human
- Reported conditions: number of 2,588 patients below 10 FIU
Assay endpoint: Pre-vaccination IgG Negative patients

INSERT INTO measurements (residue_sequence, result) VALUES
  ('DLLSHAFFA (listed as Homo sapiens) [MAP-432]', '1,280'),
  ('VIQNLERGYR (listed as Homo sapiens) [Lck-449]', '1,182'),
  ('RYLTQETNKV (listed as Homo sapiens) [PTHrP-102]', '1,702'),
  ('ILGELREKV (listed as Homo sapiens) [WHSC2-141]', 680),
  ('AYDFLYNYL (listed as Homo sapiens) [SART2-161]', '1,641'),
  ('ALVEFEDVL (listed as Homo sapiens) [HNRPL-140]', '1,293'),
  ('KLKHYGPGWV (listed as Homo sapiens) [CypB-129]', 700),
  ('HYTNASDGL (listed as Homo sapiens) [Lck-208]', '2,028'),
  ('KYVGIEREM (listed as Homo sapiens) [EZH2-735]', '2,030'),
  ('TYSVSFDSL (listed as Homo sapiens) [PSMA-624]', '1,638'),
  ('DYVREHKDNI (listed as Homo sapiens) [EGFR-800]', '1,046'),
  ('NYSVRYRPGL (listed as Homo sapiens) [MRP3-1293]', '1,030'),
  ('NVLHFFNAPL (listed as Homo sapiens) [HNRPL-501]', '1,399'),
  ('DVWSFGILL (listed as Homo sapiens) [Lck-422]', '2,272');

====

- System: cancer patients
- Test: Test Example 4: correlation between vaccination with individual peptides (or peptide sets) and OS, Cox proportional hazards regression
- Assay type: in vivo, human
- Reported conditions: Table 19; 2,085 advanced cancer patients (stage IV+recurrence); Cox proportional hazards regression, OS
Assay endpoint: HR

INSERT INTO measurements (residue_sequence, recorded_number) VALUES
  ('KLKHYGPGWV (listed as Homo sapiens) [CypB-129]', 0.9),
  ('DYLRSVLEDF (listed as Homo sapiens) [Lck-488]', 1.0),
  ('DYVREHKDNI (listed as Homo sapiens) [EGFR-800]', 0.8),
  ('RLAEYQAYI (listed as Homo sapiens) [SART3-309]', 0.9);

====

Listed here are sequences together with their documented Non-vaccinate cases (mOS).
- System: cancer patients
- Test: Test Example 4: correlation between vaccination with individual peptides (or peptide sets) and OS, Cox proportional hazards regression
- Type: in vivo, human
- Reported conditions: Table 18; all 2,588 cases; median OS of patients under PPV not containing the peptide
Assay endpoint: Non-vaccinate cases (mOS)

INSERT INTO results (residue_sequence, result) VALUES
  ('DYLRSVLEDF (listed as Homo sapiens) [Lck-488]', '447(12.0) M'),
  ('WLEYYNLER (listed as Homo sapiens) [SART3-511]', '775(11.2) M'),
  ('NYSVRYRPGL (listed as Homo sapiens) [MRP3-1293]', '1,226(12.1) M'),
  ('NVLHFFNAPL (listed as Homo sapiens) [HNRPL-501]', '1,107(11.6) M'),
  ('VYDYNCHVDL (listed as Homo sapiens) [SART3-109]', '1,948(11.5) M'),
  ('LLQAEAPRL (listed as Homo sapiens) [SART3-302]', '642(10.5) M'),
  ('LYAWEPSFL (listed as Homo sapiens) [MRP3-503]', '1,417(11.9) M'),
  ('DYVREHKDNI (listed as Homo sapiens) [EGFR-800]', '1,160(11.1) M'),
  ('TFDYLRSVL (listed as Homo sapiens) [Lck-486]', '671(11.3) M'),
  ('HYTNASDGL (listed as Homo sapiens) [Lck-208]', '1,416(11.4) M'),
  ('DVWSFGILL (listed as Homo sapiens) [Lck-422]', '1,849(11.4) M'),
  ('ILEQSGEWWK (listed as Homo sapiens) [Lck-90]', '712(11.0) M'),
  ('DYSARWNEI (listed as Homo sapiens) [SART2-93]', '413(11.5) M'),
  ('KLVERLGAA (listed as Homo sapiens) [Lck-246]', '684(11.6) M'),
  ('DLLSHAFFA (listed as Homo sapiens) [MAP-432]', '1,087(11.9) M'),
  ('VIQNLERGYR (listed as Homo sapiens) [Lck-449]', '1,087(10.8) M');
